target: PI3K (Homo sapiens); construct: PI3 Kinase α IC50; other: PI3 Kinase α; other: PI3 Kinase α isoform, fluorescence polarization; assay: Fluorescence polarization assay for PI3K; type: biochemical; details: PI3 Kinase α; read-out: PI3 Kinase α IC50
MEASURED_ATTRIBUTE: IC50
Put your answer as a value accompanied by its unit after it.

Q: // lookup IC50 for Nc1ccc(-c2nc(N3CC4CCC(C3)O4)c3cnn(CCO)c3n2)cc1 [Example 207]
Result: 3.59 µM

Q: Lookup COC(=O)N1CCC(n2ncc3c(N4CC5CCC(C4)O5)nc(-c4ccc(NC(=O)Nc5cccnc5)cc4)nc32)CC1 [Example 13]
Result: 0.613 µM

Q: Continue with COC(=O)N1CCC(n2ncc3c(N4CC5CCC(C4)O5)nc(-c4ccc(NC(=O)NCCF)cc4)nc32)CC1 [Example 10]
Result: 4.93 µM

Q: Record: O=C(NCCO)Nc1ccc(-c2nc(N3CC4CCC(C3)O4)c3cnn(C4CCC5(CC4)OCCO5)c3n2)cc1 [Example 125]
Result: 1.35 µM

Q: Quick one: O=C(Nc1ccncc1)Nc1ccc(-c2nc(N3CC4CCC(C3)O4)c3cnn(CC(F)(F)F)c3n2)cc1 [Example 104]
Result: 0.201 µM

Q: Would you mind doing CN(C)CCOc1ccc(NC(=O)Nc2ccc(-c3nc(N4CC5CCC(C4)O5)c4cnn(CCF)c4n3)cc2)cc1 [Example 243] as well?
Result: 0.116 µM

Q: What about this compound? CNC(=O)Nc1ccc(-c2nc(N3CC4CCC(C3)O4)c3cnn(C)c3n2)cc1 [Example 50]
Result: 0.247 µM

Q: What about this compound? COC(=O)N1CCC(n2ncc3c(N4CC5CCC(C4)O5)nc(-c4ccc(NC(=O)Nc5ccc(CO)cc5)cc4)nc32)CC1 [Example 164]
Result: 0.029 µM

Q: Continue with COC(=O)Nc1ccc(-c2nc(N3CC4CCC(C3)O4)c3cnn(CCO)c3n2)cc1 [Example 192]
Result: 2.1 µM

Q: Next record, please: O=C(Nc1ccc(-c2nc(N3CC4CCC(C3)O4)c3cnn(CCF)c3n2)cc1)Nc1ccc(N2CCOCC2)cc1 [Example 244]
Result: 0.739 µM

Q: Another compound to check: CNC(=O)Nc1ccc(-c2nc(N3CC4CCC(C3)O4)c3cnn(Cc4ccccc4)c3n2)cc1 [Example 77]
Result: 2.1 µM

====

biological target: Human mTOR (FLAG-TOR) (Homo sapiens, UniProt P42345); construct: FLAG; test: Human mTOR kinase assay with purified enzyme, DELFIA format; format: biochemical
I'd appreciate it if you could supply log10(IC50) values for the items below.
Scale type: logarithmic (base 10). Underlying IC50 unit: nM.

Q: Return reported log10(IC50); argument: CCNC(=O)Nc1ccc(-c2nc(N3CC4CCC(C3)O4)c3cnn(C4CCC5(CC4)OCCO5)c3n2)cc1 [Example 123]
Result: -0.59

Q: Try CCn1ncc2c(N3CC4CCC(C3)O4)nc(-c3ccc(NC(=O)OCC(C)O)cc3)nc21 (stereo not shown) [Example 191] next.
Result: 0.55

Q: Queued: N#CCCn1ncc2c(N3CC4CCC(C3)O4)nc(-c3ccc(NC(=O)Nc4ccc(CO)cc4)cc3)nc21 [Example 218]
Result: -0.91

Q: Continue with CCn1ncc2c(N3CC4CCC(C3)O4)nc(-c3ccc(NC(=O)Nc4ccc(CCO)cc4)cc3)nc21 [Example 183]
Result: -0.92

Q: CC(C)(C)n1ncc2c(N3CC4CCC(C3)O4)nc(-c3ccc(NC(=O)NC4CC4)cc3)nc21 [Example 96] , same question.
Result: -0.40

Q: Next: Cn1ncc2c(N3CC4CCC(C3)O4)nc(-c3ccc(NC(=O)NCCF)cc3)nc21 [Example 52]
Result: 0.00

Q: Now give it for O=C(Nc1ccc(-c2nc(N3CC4CCC(C3)O4)c3cnn(CCO)c3n2)cc1)OCCO [Example 195] too.
Result: 0.69

Q: What do we get for CCn1ncc2c(N3CC4CCC(C3)O4)nc(-c3ccc(NC(=O)OCCO)cc3)nc21 [Example 45] ?
Result: 0.08

Q: Now give it for CNC(=O)Nc1ccc(-c2nc(N3CC4CCC(C3)O4)c3cnn(C4CCN(C(=O)OC)CC4)c3n2)cc1 [Example 7] too.
Result: -0.68

Q: Now try CNC(=O)Nc1ccc(-c2nc(N3CC4CCC(C3)O4)c3cnn(CCN(C)C)c3n2)cc1 [Example 153] .
Result: 1.16

Q: And for Oc1ccc(Nc2nc(N3CC4CCC(C3)O4)c3cnn(C4CCN(Cc5ccccc5)CC4)c3n2)cc1 [Example 30] ?
Result: 2.41

Q: Now give it for COC(=O)N1CCC(n2ncc3c(N4CC5CCC(C4)O5)nc(-c4ccc(NC(=O)Nc5ccncc5)cc4)nc32)CC1 [Example 14] too.
Result: -0.80

Q: Field entry: CCn1ncc2c(N3CC4CCC(C3)O4)nc(-c3ccc(NC(=O)NCCN4CCOCC4)cc3)nc21 [Example 179]
Result: 1.82

Q: Also CNC(=O)Nc1ccc(-c2nc(N3CC4CCC(C3)O4)c3cnn(C4CCN(C(=O)OC(C)(C)C)CC4)c3n2)cc1 [Example 8] ?
Result: -0.55

Q: Now try CCn1ncc2c(N3CC4CCC(C3)O4)nc(-c3ccc(NC(=O)NCCC(=O)N4CCN(C)CC4)cc3)nc21 [Example 277] .
Result: 2.04

Q: Let us now turn to CN(C)CCn1ncc2c(N3CC4CCC(C3)O4)nc(-c3ccc(NC(=O)Nc4ccncc4)cc3)nc21 [Example 162]
Result: 0.08

Q: Then CCOC(=O)N1CCC(n2ncc3c(N4CC5CCC(C4)O5)nc(-c4ccc(NC(=O)Nc5ccn[nH]5)cc4)nc32)CC1 [Example 39] ?
Result: 1.98

Q: Try this compound next: O=C(Nc1ccc(CO)cc1)Nc1ccc(-c2nc(N3C4CCC3COC4)c3cnn(CC(F)(F)F)c3n2)cc1 [Example 269]
Result: -1.10

Q: Now the same for N#CCCn1ncc2c(N3CC4CCC(C3)O4)nc(-c3ccc(NC(=O)OCCO)cc3)nc21 [Example 213]
Result: 0.10

Q: Then what about the compound CCn1ncc2c(N3CC4CCC(C3)O4)nc(-c3ccc(NC(=O)Nc4ccc(N5CCOCC5)cc4)cc3)nc21 [Example 181] ?
Result: -0.74

Q: What do we get for O=C(Nc1ccc(-c2nc(N3CC4CCC(C3)O4)c3cnn(C4CCC5(CC4)OCCO5)c3n2)cc1)NC1CC1 [Example 126] ?
Result: -0.66

Q: Now the compound CCn1ncc2c(N3CC4CCC(C3)O4)nc(-c3ccc(NC(=O)NCC(=O)N4CCN(C)CC4)cc3)nc21 [Example 276]
Result: 1.97

Q: Also need CC(C)n1ncc2c(N3CC4CCC(C3)O4)nc(-c3ccc(NC(=O)NCCO)cc3)nc21 [Example 143] , thanks.
Result: -1.12

Q: One more compound: CN1CCN(c2ccc(NC(=O)Nc3ccc(-c4nc(N5CC6CCC(C5)O6)c5cnn(CCF)c5n4)cc3)cc2)CC1 [Example 246]
Result: -0.16

Q: Also, O=C(Nc1ccc(CCO)cc1)Nc1ccc(-c2nc(N3CC4CCC(C3)O4)c3cnn(CC(F)(F)F)c3n2)cc1 [Example 260] please.
Result: -0.95

====

Please go through the items and note down their IC50.
biological target: Human mTOR (FLAG-TOR) (Homo sapiens, UniProt P42345); construct: FLAG; test: Human mTOR kinase assay with purified enzyme, DELFIA format; assay type: biochemical
Express it in nM; write the number only.

Q: // query IC50 value for entry CC(C)(C)n1ncc2c(N3CC4CCC(C3)O4)nc(-c3ccc(NC(=O)NCCO)cc3)nc21 [Example 97]
Result: 0.34

Q: Next compound: CCn1ncc2c(N3CC4CCC(C3)O4)nc(-c3ccc(NC(=O)Nc4ccncc4)cc3)nc21 [Example 48]
Result: 0.16

Q: And what about the compound COC(=O)N1CCC(n2ncc3c(N4CC5CCC(C4)O5)nc(-c4ccc(NC(=O)Nc5ccc(CO)cc5)cc4)nc32)CC1 [Example 164] ?
Result: 0.08

Q: Note, next up: Cn1ncc2c(N3CC4CCC(C3)O4)nc(-c3cccc(O)c3)nc21 [Example 61]
Result: 90

====

Record form. Attribute: IC50. Fill in for each entry.
target: PI3K (Homo sapiens); construct: PI3 Kinase γ IC50; other: PI3 Kinase γ; other: PI3 Kinase γ isoform, fluorescence polarization; assay: Fluorescence polarization assay for PI3K; format: biochemical; settings: PI3 Kinase γ; read-out: PI3 Kinase γ IC50

Q: Which IC50 is reported with PI3K (Homo sapiens) for this entry: COC(=O)N1CCC(n2ncc3c(N4CC5CCC(C4)O5)nc(-c4ccc(NC(=O)OCCN5CCN(C)CC5)cc4)nc32)CC1 [Example 118] ?
Result: > 10 µM

Q: Try CC(C)C(=O)N1CCC(n2ncc3c(N4CC5CCC(C4)O5)nc(-c4ccc(N)cc4)nc32)CC1 [Example 80] next.
Result: > 10 µM

Q: Repeat with O=C(Nc1ccc(-c2nc(N3C4CCC3COC4)c3cnn(CC(F)(F)F)c3n2)cc1)OCCO [Example 266]
Result: > 10 µM

Q: Would you mind doing CNC(=O)Nc1ccc(-c2nc(N3CC4CCC(C3)O4)c3cnn(CC(F)(F)F)c3n2)cc1 [Example 1] as well?
Result: > 10 µM

Q: // next record CCNC(=O)Nc1ccc(-c2nc(N3CC4CCC(C3)O4)c3cnn(Cc4ccccc4)c3n2)cc1 [Example 78]
Result: > 10 µM

Q: Please answer likewise for COCCOC(=O)Nc1ccc(-c2nc(N3CC4CCC(C3)O4)c3cnn(C4CCN(C(=O)OC)CC4)c3n2)cc1 [Example 113]
Result: > 10 µM

Q: Now consider O=C(Nc1ccc(-c2nc(N3CC4CCC(C3)O4)c3cnn(C4CCC5(CC4)OCCO5)c3n2)cc1)OCCCO [Example 122] .
Result: > 10 µM

Q: // same read-out, input: CNC(=O)Nc1ccc(-c2nc(N3CC4CCC(C3)O4)c3cnn(C4CCC(O)CC4)c3n2)cc1 (centres unmarked) [Example 108]
Result: > 10 µM

Q: Similarly, CNC(=O)Nc1ccc(-c2nc(N3CC4CCC(C3)O4)c3cnn(C4CCC5(CC4)OCCO5)c3n2)cc1 [Example 62] ?
Result: > 10 µM

Q: Okay, and COC(=O)N1CCC(n2ncc3c(N4CC5CCC(C4)O5)nc(-c4ccc(NC(=O)NCCN)cc4)nc32)CC1 [Example 168] ?
Result: 3.22 µM

Q: Same thing, different molecule: N#CCCn1ncc2c(N3CC4CCC(C3)O4)nc(-c3ccc(NC(=O)Nc4ccc(CO)cc4)cc3)nc21 [Example 218]
Result: 2.2 µM

Q: Another molecule to look at: COC(=O)N1CCC(n2ncc3c(N4CC5CCC(C4)O5)nc(-c4ccc(NC(=O)Nc5ccccc5)cc4)nc32)CC1 [Example 11]
Result: 6.82 µM

Q: Next entry: CNC(=O)Nc1ccc(-c2nc(N3C4CCC3COC4)c3cnn(CC(F)(F)F)c3n2)cc1 [Example 267]
Result: 9 µM

Q: Thanks! And CC(C)C(=O)N1CCC(n2ncc3c(N4CC5CCC(C4)O5)nc(-c4ccc(NC(=O)NC5CC5)cc4)nc32)CC1 [Example 86] ?
Result: > 10 µM

Q: // next record CNC(=O)Nc1ccc(-c2nc(N3CC4CCC(C3)O4)c3cnn(Cc4ccccc4)c3n2)cc1 [Example 77]
Result: > 10 µM

Q: Let us now turn to CCn1ncc2c(N3CC4CCC(C3)O4)nc(-c3ccc(NC(=O)NCCNC)cc3)nc21 [Example 174]
Result: 4.98 µM

Q: Another molecule: CC(C)OC(=O)N1CCC(n2ncc3c(N4CC5CCC(C4)O5)nc(-c4ccc(NC(=O)NCCO)cc4)nc32)CC1 [Example 69]
Result: 11 µM
